# system: α1β3 GABAA receptors (Rattus norvegicus, UniProt P62813+P63079)
# Construct: expressed in transfected cells; host or cells: Xenopus laevis oocytes, mRNA injected
# Sequence (P62813 28-455): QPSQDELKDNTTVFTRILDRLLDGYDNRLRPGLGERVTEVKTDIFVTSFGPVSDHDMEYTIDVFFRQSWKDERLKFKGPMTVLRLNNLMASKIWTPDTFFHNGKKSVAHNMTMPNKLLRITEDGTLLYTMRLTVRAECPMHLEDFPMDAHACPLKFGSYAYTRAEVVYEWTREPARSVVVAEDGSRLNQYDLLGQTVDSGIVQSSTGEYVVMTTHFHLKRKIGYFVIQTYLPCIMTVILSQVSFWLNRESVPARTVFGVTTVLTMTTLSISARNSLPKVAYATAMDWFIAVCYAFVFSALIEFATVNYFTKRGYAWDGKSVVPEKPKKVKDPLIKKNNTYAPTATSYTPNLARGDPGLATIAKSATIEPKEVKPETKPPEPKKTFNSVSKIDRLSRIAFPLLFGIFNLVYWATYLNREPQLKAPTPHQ
# Sequence (P63079 26-473): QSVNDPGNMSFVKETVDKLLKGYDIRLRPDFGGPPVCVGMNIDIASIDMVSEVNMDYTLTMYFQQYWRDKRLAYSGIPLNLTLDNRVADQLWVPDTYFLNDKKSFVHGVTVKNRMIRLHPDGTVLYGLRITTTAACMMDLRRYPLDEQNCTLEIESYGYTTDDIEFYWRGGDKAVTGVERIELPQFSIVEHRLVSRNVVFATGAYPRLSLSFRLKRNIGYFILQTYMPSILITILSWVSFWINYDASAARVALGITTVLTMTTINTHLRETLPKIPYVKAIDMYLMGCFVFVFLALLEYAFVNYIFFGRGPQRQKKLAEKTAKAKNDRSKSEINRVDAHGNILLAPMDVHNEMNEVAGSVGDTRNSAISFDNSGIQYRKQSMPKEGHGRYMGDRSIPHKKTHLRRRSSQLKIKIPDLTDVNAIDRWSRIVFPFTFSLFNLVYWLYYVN
# measurement.protocol: Two electrode voltage clamp in Xenopus laevis oocytes, α1β3
# Assay type: cell-based
# assay.context: read-out: efficacy, % of control current (GABA EC3-5 = 100%), α1β3; 3 µM
Catalogue of compounds with associated activity at 3 µM
reported.property: activity at 3 µM (%)

{"columns": ["compound", "recorded.number"],
 "data": [
  ["Cc1ccc(-n2nc3c4cc(Cl)ccc4[nH]cc-3c2=O)cc1 [Compound 2]", 276],
  ["COc1ccc(-n2nc3c4cc(OC)ccc4[nH]cc-3c2=O)cc1 [Compound 4]", 654],
  ["COc1ccc(-n2nc3c4cc(Cl)ccc4[nH]cc-3c2=O)cc1 [Compound 1]", 839],
  ["Nc1ccc(-n2nc3c4cc(Cl)ccc4[nH]cc-3c2=O)cc1 [Compound 3]", 254]
]}
